- Tested on: 501Mel-XP cells (Vemurafenib-resistant)
- METHOD_SUMMARY: Kinase inhibitor library screening, PrestoBlue cell viability, 1 or 10 μM, 72 h
- MEASUREMENT_SETUP: 501Mel XP; 1μΜ; 72 h; in %
- Description: After 72 h of treatment, cell viability was assessed using the PrestoBlue Cell Viability Reagent (ThermoFisher Scientific). Measurements were performed with the CLARIOstar Monochromator microplate reader (BMG Labtech). Kinase inhibitor library screening. […] Drugs were added at 2 different concentrations, 1 and 10 μM, for 72 h and cell viability was assessed using the PrestoBlue Cell Viability assay. […] Each cell line was analyzed at least in duplicate. […]

{"columns": ["COMPOUND", "cell viability, 501Mel XP, 1μΜ"],
 "data": [
  ["C[C@@H]1CCN(C(=O)CC#N)C[C@@H]1N(C)c1ncnc2[nH]ccc12.O=C(O)CC(O)(CC(=O)O)C(=O)O [Tofacitinib citrate (CP-690550 citrate)]", 94.0],
  ["Nc1ncnc2c1c(-c1cccc(OCc3ccccc3)c1)cn2C1CC(CN2CCCC2)C1 (centres unmarked)", 82.0],
  ["CN(C)Cc1cccc(N/C(=C2\\C(=O)Nc3cc(C(=O)N(C)C)ccc32)c2ccccc2)c1", 98.8],
  ["CC(C)(C)c1cc(/C=C(\\C#N)C(N)=S)cc(C(C)(C)C)c1O", 98.6],
  ["CCO.N#CC(=C(/N)Sc1ccccc1N)/C(C#N)=C(\\N)Sc1ccccc1N", 86.9]
]}

Reference for the values: paper PMC6364417
